Answer each item with its documented Emax.
# SYSTEM NAME: human M3 receptor (Homo sapiens)
# Construct: expressed in transfected cells
# Sequence (P20309 whole entry): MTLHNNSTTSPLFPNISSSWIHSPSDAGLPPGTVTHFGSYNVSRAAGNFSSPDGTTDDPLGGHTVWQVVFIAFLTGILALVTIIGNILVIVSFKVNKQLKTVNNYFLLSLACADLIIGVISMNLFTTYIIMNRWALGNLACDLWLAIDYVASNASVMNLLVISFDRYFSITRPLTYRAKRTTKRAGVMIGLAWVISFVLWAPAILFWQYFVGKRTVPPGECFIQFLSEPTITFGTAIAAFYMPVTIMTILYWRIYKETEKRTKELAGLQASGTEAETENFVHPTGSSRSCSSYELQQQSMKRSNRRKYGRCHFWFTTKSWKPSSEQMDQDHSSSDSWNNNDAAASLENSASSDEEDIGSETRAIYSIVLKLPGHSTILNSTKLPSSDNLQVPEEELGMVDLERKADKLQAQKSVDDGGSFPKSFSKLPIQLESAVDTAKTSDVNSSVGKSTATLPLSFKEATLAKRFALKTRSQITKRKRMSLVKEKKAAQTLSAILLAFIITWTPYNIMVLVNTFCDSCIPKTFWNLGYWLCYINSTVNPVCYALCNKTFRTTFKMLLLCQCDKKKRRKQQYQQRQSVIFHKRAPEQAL
# PROTOCOL DETAILS: HTRF IP-One curve shift assay, M3
# Type: cell-based
# EXPERIMENTAL SETUP: MK-4710 concentration 1110 nM, read-out: Emax
Write the answer as a number in %, unit excluded.

Problem: Could you tell me which Emax is on file for CCCCCCCOc1nsnc1C1=CCCCN1C ?
Solution: 74.3

Problem: Input CCCCCCOc1nsnc1C1=CCCN(C)C1 [xanomeline, reference compound]
Solution: 81

Problem: Input CC1OC2(CS1)CN1CCC2CC1 (stereo not shown) [cevimeline, Cevimeline, reference compound]
Solution: 150

Problem: Input CCCCCOc1nsnc1C1=CCCCN1C
Solution: 51.1

====

# SYSTEM NAME: human M2 receptor (Homo sapiens)
# PROTOCOL DETAILS: SPA GTP (GTPgS) binding curve shift assay, M2
# Assay type: biochemical
# EXPERIMENTAL SETUP: M2; MK-4710 concentration […]
# Method: Membranes were prepared for GTPgS binding assays from CHO-K1 cells stably expressing human M2 or human M4 receptors. Cells were grown in 5-layer cell culture flasks. Cells were washed with 50 mL of PBS and then dissociated with 0.05% trypsin. […] According to Promega guidelines, membrane protein concentration was determined by BCA protein assay (Promega, Madison, WI). […] Raw data for all assays was transmitted directly from plate readers into the Beacon database for processing. […]
REPORTED ENDPOINT: pEC50
pEC50 field: float, defined as -log10 of concentration (mol/L).

Problem: Could you tell me which pEC50 is on file for CCCCCOc1nsnc1C1=CCCCN1C ?
Solution: 7.59

====

Answer each item with its documented Emax.
# SYSTEM NAME: human M5 receptor (Homo sapiens)
# Construct: expressed in transfected cells
# Sequence (P08912 whole entry): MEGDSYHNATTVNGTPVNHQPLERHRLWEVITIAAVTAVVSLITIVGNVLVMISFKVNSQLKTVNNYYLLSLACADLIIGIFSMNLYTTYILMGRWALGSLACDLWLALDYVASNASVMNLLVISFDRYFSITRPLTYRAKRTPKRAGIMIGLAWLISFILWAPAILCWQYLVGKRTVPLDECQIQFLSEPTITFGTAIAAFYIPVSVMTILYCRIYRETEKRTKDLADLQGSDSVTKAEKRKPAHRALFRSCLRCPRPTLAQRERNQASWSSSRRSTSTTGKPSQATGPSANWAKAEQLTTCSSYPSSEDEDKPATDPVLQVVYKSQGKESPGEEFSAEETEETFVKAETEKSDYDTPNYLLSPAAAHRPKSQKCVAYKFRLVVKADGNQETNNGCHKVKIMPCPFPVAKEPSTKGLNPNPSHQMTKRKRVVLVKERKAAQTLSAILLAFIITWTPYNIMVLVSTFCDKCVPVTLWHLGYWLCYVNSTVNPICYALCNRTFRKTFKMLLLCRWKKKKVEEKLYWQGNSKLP
# PROTOCOL DETAILS: HTRF IP-One curve shift assay, M5
# Format: cell-based
# EXPERIMENTAL SETUP: M5; MK-4710 concentration 1110 nM; read-out: Emax
Write the answer as a number in %, unit excluded.

Problem: Which Emax is reported with human M5 receptor (Homo sapiens) for this entry: CC(=O)OCC[N+](C)(C)C [acetylcholine, reference compound] ?
Solution: 78.1

Problem: Input CCCCCCCOc1nsnc1C1=CCCCN1C [KTX-593]
Solution: 69.7

Problem: Input CC1OC2(CS1)CN1CCC2CC1 (centres unmarked) [cevimeline, Cevimeline, reference compound]
Solution: 78.3

Problem: Input CCCCCCOc1nsnc1C1=CCCN(C)C1 [xanomeline, reference compound]
Solution: 78.6

Problem: Input CCCCCOc1nsnc1C1=CCCCN1C [KTX-517]
Solution: 69.6

====

Answer each item with its documented τ (agonist pharmacology).
# SYSTEM NAME: human M2 receptor (Homo sapiens, UniProt P08172)
# Sequence (P08172 whole entry): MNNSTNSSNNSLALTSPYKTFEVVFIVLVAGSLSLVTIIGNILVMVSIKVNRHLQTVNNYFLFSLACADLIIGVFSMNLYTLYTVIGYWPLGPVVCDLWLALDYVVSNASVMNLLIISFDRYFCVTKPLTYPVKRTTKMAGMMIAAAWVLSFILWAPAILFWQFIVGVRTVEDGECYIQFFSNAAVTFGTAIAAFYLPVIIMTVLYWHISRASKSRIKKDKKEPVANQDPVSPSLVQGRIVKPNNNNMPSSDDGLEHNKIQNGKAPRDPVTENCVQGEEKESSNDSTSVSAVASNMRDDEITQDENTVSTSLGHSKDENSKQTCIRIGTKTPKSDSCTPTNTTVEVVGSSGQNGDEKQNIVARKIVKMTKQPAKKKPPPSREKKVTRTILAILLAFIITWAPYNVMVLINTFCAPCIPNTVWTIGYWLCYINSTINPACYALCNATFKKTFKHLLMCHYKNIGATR
# PROTOCOL DETAILS: SPA GTP (GTPgS) binding curve shift assay, M2
# Assay type: biochemical
# EXPERIMENTAL SETUP: M2; M4 PAM Emraclidine
Give a plain numeric answer without units written out.

Problem: Could you tell me which τ (agonist pharmacology) is on file for CCCCCCOc1nsnc1C1=CCCN(C)C1 [xanomeline, reference compound] ?
Solution: 0.0

Problem: Input CC1OC2(CS1)CN1CCC2CC1 (stereo not shown) [cevimeline, Cevimeline, reference compound]
Solution: 0.0

Problem: Input CCCCCCCOc1nsnc1C1=CCCCN1C
Solution: 1.6

Problem: Input CCCCCOc1nsnc1C1=CCCCN1C
Solution: 0.1
